Values compiled from patent US20220370416A1.

Molecular target: HiBit-KRAS^G12C (Homo sapiens, UniProt P01116, G12C)
Sequence (P01116 1-186 isoform P01116-2 G12C limits assumed): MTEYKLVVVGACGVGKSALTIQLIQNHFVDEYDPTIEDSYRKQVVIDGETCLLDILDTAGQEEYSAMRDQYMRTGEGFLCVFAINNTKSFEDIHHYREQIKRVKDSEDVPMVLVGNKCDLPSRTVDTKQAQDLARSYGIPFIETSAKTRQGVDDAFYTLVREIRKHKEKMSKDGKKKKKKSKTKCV
Test: HiBit degradation assay in MiaPaCa-2 HiBit-KRas^G12C cells
Format: cell-based
Details: read-out: KRas^G12C-HiBiT (MiaPaCa; 0.5% DMSO) IC50; MiaPaCa-2 HiBit-KRas^G12C cells; 0.5% DMSO; 24 hours
QUANTITY_MEASURED: DC50

Record excerpt, results attached:
COMPOUND	RESULT
C=CC(=O)N1CCN(c2nc(OCCN3CCC(CN(C)CC(=O)N[C@H](C(=O)N4C[C@H](O)C[C@H]4C(=O)N[C@@H](C)c4ccc(-c5scnc5C)cc4)C(C)(C)C)CC3)nc3c(F)c(-c4cc(O)cc5ccccc45)c(Cl)cc23)C[C@@H]1CC#N [Compound 148]	100 to 1000 nM
C=C(F)C(=O)N1CCN(c2nc(OCCN3CCC(COc4cc([C@H](C(=O)N5C[C@H](O)C[C@H]5C(=O)N[C@@H](C)c5ccc(-c6ccnn6C)cc5)C(C)C)on4)CC3)nc3c(F)c(-c4cc(O)cc5ccccc45)c(Cl)cc23)C[C@@H]1CC#N (atropisomer, axis not shown) [Compound 141]	100 to 1000 nM

For each listed entry, give its DC50.
1. C=CC(=O)N1CCN(c2nc(OCCN3CCC4(CC3)CN(c3cc([C@H](C(=O)N5C[C@H](O)C[C@H]5C(=O)N[C@@H](C)c5ccc(-c6scnc6C)cc5)C(C)C)on3)C4)nc3c(F)c(-c4cc(O)cc5ccccc45)c(Cl)cc23)C[C@@H]1CC#N [Compound 139]
2. C=CC(=O)N1CCN(c2nc(OCCN3CCC(COCC(=O)N[C@H](C(=O)N4C[C@H](O)C[C@H]4C(=O)N[C@@H](C)c4ccc(-c5scnc5C)cc4)C(C)(C)C)CC3)nc3c(F)c(-c4nc(NC)cc(C)c4C(F)(F)F)c(Cl)cc23)C[C@@H]1CC#N [Compound 98]
3. C=CC(=O)N1CCN(c2nc(O[C@H](C)CN3CCC(COCC(=O)N[C@H](C(=O)N4C[C@H](O)C[C@H]4C(=O)N[C@@H](C)c4ccc(-c5scnc5C)cc4)C(C)(C)C)CC3)nc3c(F)c(-c4cc(O)cc5ccccc45)c(Cl)cc23)C[C@@H]1CC#N [Compound 152]
4. C=CC(=O)N1CCN(c2nc(OC[C@@H]3C[C@@H](OCCOc4cc(-c5scnc5C)ccc4CNC(=O)[C@@H]4C[C@@H](O)CN4C(=O)[C@H](c4cc(C)no4)C(C)C)CN3C)nc3c2CCN(c2cccc4ccccc24)C3)C[C@@H]1CC#N [Compound 89]

["100 to 1000 nM", "100 to 1000 nM", "100 to 1000 nM", "> 1000 nM"]

For each listed entry, give its DC50.
1. C=CC(=O)N1CCN(c2nc(OCCN3CCC(F)(COc4cc([C@@H](C(=O)N5C[C@H](O)C[C@H]5C(=O)N[C@@H](C)c5ccc(-c6scnc6C)cc5)C(C)C)on4)CC3)nc3c(F)c(-c4cc(O)cc5ccccc45)c(Cl)cc23)C[C@@H]1CC#N [Compound 134]
2. C=CC(=O)N1CCN(c2nc(O[C@H](C)CN3CCC(COc4cc([C@H](C(=O)N5C[C@H](O)C[C@H]5C(=O)N[C@@H](C)c5ccc(-c6scnc6C)cc5)C(C)C)on4)CC3)nc3c(F)c(-c4cc(O)cc5ccccc45)c(Cl)cc23)C[C@@H]1CC#N [Compound 153]
3. C=CC(=O)N1CCN(c2nc(OCCN3CCC(COc4cc([C@H](C(=O)N5C[C@H](O)C[C@H]5C(=O)N[C@@H](C)c5ccc(-c6scnc6C)cc5)C(C)C)on4)CC3)nc3c(F)c(-c4cc(O)cc5ccccc45)c(Cl)cc23)CC1 (atropisomer, axis not shown) [Compound 147]
4. C=CC(=O)N1CCN(c2nc(OCCN3CCC(CN(C)c4cc([C@@H](C(=O)N5C[C@H](O)C[C@H]5C(=O)N[C@@H](C)c5ccc(-c6scnc6C)cc5)C(C)C)on4)CC3)nc3c(F)c(-c4cc(O)cc5ccccc45)c(Cl)cc23)C[C@@H]1CC#N [Compound 144]
5. C=C(F)C(=O)N1CCN(c2nc(OCCN3CCC(C)(COc4cc([C@@H](C(=O)N5C[C@H](O)C[C@H]5C(=O)N[C@@H](C)c5ccc(-c6scnc6C)cc5)C(C)C)on4)CC3)nc3c(F)c(-c4cc(O)cc5ccccc45)c(Cl)cc23)C[C@@H]1CC#N (atropisomer, axis not shown) [Compound 126]

["> 1000 nM", "100 to 1000 nM", "100 to 1000 nM", "> 1000 nM", "> 1000 nM"]

* * *

Target: HiBit-KRAS^G12C (Homo sapiens, UniProt P01116, G12C)
Assay: HiBit degradation assay in MiaPaCa-2 HiBit-KRas^G12C cells
Format: cell-based
Conditions: MIA PaCa-2, MiaPaCa-2 HiBit-KRas^G12C cells; 0.5% DMSO; 24 hours; maximum degradation; read-out: KRas^G12C-HiBiT (MiaPaCa; 0.5% DMSO) DMax
For each entry below, report its Dmax value.

MOLECULE	Dmax
C=CC(=O)N1CCN(c2nc(O[C@H](C)CN3CCC(OCCOCC(=O)N[C@H](C(=O)N4C[C@H](O)C[C@H]4C(=O)N[C@@H](C)c4ccc(-c5scnc5C)cc4)C(C)(C)C)CC3)nc3c(F)c(-c4cc(O)cc5ccccc45)c(Cl)cc23)C[C@@H]1CC#N	35 to 70%
C=CC(=O)N1CCN(c2nc(O[C@@H](C)CN3CCC(OCCOCC(=O)N[C@H](C(=O)N4C[C@H](O)C[C@H]4C(=O)N[C@@H](C)c4ccc(-c5scnc5C)cc4)C(C)(C)C)CC3)nc3c(F)c(-c4cc(O)cc5ccccc45)c(Cl)cc23)CC1	35 to 70%
C=C(F)C(=O)N1CCN(c2nc(OCCN3CCC(F)(COc4cc([C@H](C(=O)N5C[C@H](O)C[C@H]5C(=O)N[C@@H](C)c5ccc(-c6ccnn6C)cc5)C(C)C)on4)CC3)nc3c(F)c(-c4cc(O)cc5ccccc45)c(Cl)cc23)C[C@@H]1CC#N (atropisomer, axis not shown)	> 70%
C=C(F)C(=O)N1CCN(c2nc(OCCN3CCC(F)(COc4cc([C@H](C(=O)N5C[C@H](O)C[C@H]5C(=O)N[C@@H](C)c5ccc(-c6scnc6C)cc5)C(C)C)on4)CC3)nc3c(F)c(-c4cc(O)cc5ccccc45)c(Cl)cc23)C[C@@H]1CC#N (atropisomer, axis not shown)	> 70%
C=CC(=O)N1CCN(c2nc(OCCN3CCC4(CC3)CN(c3cc([C@H](C(=O)N5C[C@H](O)C[C@H]5C(=O)N[C@@H](C)c5ccc(-c6ccnn6C)cc5)C(C)C)on3)C4)nc3c(F)c(-c4cc(O)cc5ccccc45)c(Cl)cc23)C[C@@H]1CC#N (atropisomer, axis not shown)	> 70%

For each listed entry, give its Dmax.
1. C=C(F)C(=O)N1CCN(c2nc(OCCN3CCC(OCCOc4cc([C@H](C(=O)N5C[C@H](O)C[C@H]5C(=O)N[C@@H](C)c5ccc(-c6scnc6C)cc5)C(C)C)on4)CC3)nc3c(F)c(-c4cc(O)cc5ccccc45)c(Cl)cc23)C[C@@H]1CC#N
2. C=CC(=O)N1CCN(c2nc(OCCN3CCC(COCC(=O)N[C@H](C(=O)N4C[C@H](O)C[C@H]4C(=O)N[C@@H](C)c4ccc(-c5scnc5C)cc4)C(C)(C)C)CC3)nc3c(F)c(-c4cc(O)cc5ccccc45)c(Cl)cc23)[C@@H](C)C1

1: > 70%; 2: > 70%

* * *

Target: HiBit-KRAS^G12C (Homo sapiens, UniProt P01116, G12C)
Assay: HiBit degradation assay in SW1573 HiBit-KRas^G12C cells
Format: cell-based
Set-up: expressed in transfected cells; host or cells: SW1573 (clone E6), modified pcDNA3.1 vector, TK promoter
Settings: SW1573, SW1573 HiBit-KRas^G12C, 0.5% DMSO, 24 hours; read-out: KRas^G12C-HiBiT (SW1573; 0.5% DMSO) Dmax**
QUANTITY_MEASURED: Dmax

For each listed entry, give its Dmax.
1. C=CC(=O)N1CCN(c2nc(O[C@H](C)CN3CCC(OCC(=O)N[C@H](C(=O)N4C[C@H](O)C[C@H]4C(=O)N[C@@H](C)c4ccc(-c5scnc5C)cc4)C(C)(C)C)CC3)nc3c(F)c(-c4cc(O)cc5ccccc45)c(Cl)cc23)CC1
2. C=CC(=O)N1CCN(c2nc(OCCN3CCC4(CC3)CN(c3cc([C@H](C(=O)N5C[C@H](O)C[C@H]5C(=O)N[C@@H](C)c5ccc(-c6ccnn6C)cc5)C(C)C)on3)C4)nc3c(F)c(-c4cc(O)cc5ccccc45)c(Cl)cc23)C[C@@H]1CC#N (atropisomer, axis not shown)
3. C=C(F)C(=O)N1CCN(c2nc(OCCN3CCC(COCC(=O)N[C@H](C(=O)N4C[C@H](O)C[C@H]4C(=O)N[C@@H](C)c4ccc(-c5scnc5C)cc4)C(C)(C)C)CC3)nc3c(F)c(-c4cc(O)cc5ccccc45)c(Cl)cc23)C[C@@H]1CC#N (atropisomer, axis not shown)
4. C=CC(=O)N1CCN(c2nc(O[C@H](C)CN3CCC(OCCOCC(=O)N[C@H](C(=O)N4C[C@H](O)C[C@H]4C(=O)N[C@@H](C)c4ccc(-c5scnc5C)cc4)C(C)(C)C)CC3)nc3c(F)c(-c4cc(O)cc5ccccc45)c(Cl)cc23)[C@@H](C)C1
5. C=CC(=O)N1CCN(c2nc(O[C@H](C)CN3CCC(COc4cc([C@@H](C(=O)N5C[C@H](O)C[C@H]5C(=O)N[C@@H](C)c5ccc(-c6scnc6C)cc5)C(C)C)on4)CC3)nc3c(F)c(-c4cc(O)cc5ccccc45)c(Cl)cc23)CC1
6. C=CC(=O)N1CCN(c2nc(OCCN3CCC(COC4(C(=O)N[C@H](C(=O)N5C[C@H](O)C[C@H]5C(=O)N[C@@H](C)c5ccc(-c6scnc6C)cc5)C(C)(C)C)CC4)CC3)nc3c(F)c(-c4cc(O)cc5ccccc45)c(Cl)cc23)C[C@@H]1CC#N
7. C=C(F)C(=O)N1CCN(c2nc(OCCN3CCC(COc4cc([C@H](C(=O)N5C[C@H](O)C[C@H]5C(=O)N[C@@H](C)c5ccc(-c6ccnn6C)cc5)C(C)C)on4)CC3)nc3c(F)c(-c4cc(O)cc5ccccc45)c(Cl)cc23)C[C@@H]1CC#N (atropisomer, axis not shown)
8. C=CC(=O)N1CCN(c2nc(OCCN3CCC(COc4cc([C@@H](C(=O)N5C[C@H](O)C[C@H]5C(=O)N[C@@H](C)c5ccc(C#N)cc5)C(C)C)on4)CC3)nc3c(F)c(-c4cc(O)cc5ccccc45)c(Cl)cc23)C[C@@H]1CC#N

1. > 70%
2. > 70%
3. > 70%
4. 35 to 70%
5. 35 to 70%
6. > 70%
7. > 70%
8. 35 to 70%
